Data provenance is patent US10059741B2.

// CC50 lookup, one value per entry
# run.description: in vitro
# condition.context: dog, CC50, run with Influenza A H1N1 California/07/2009; Neutral Red
Bridge positions count the residues as written; N and C are the ends. Square brackets hold non-standard residues; d marks the D form. Peptide text beside a SMILES is read from it. R8 = C=CCCCCCC[C@@](C)(N)C(=O)O; S5 = C=CCCC[C@](C)(N)C(=O)O; Nle = CCCC[C@H](N)C(=O)O; Aib = CC(C)(N)C(=O)O

Query: Would you kindly share the measured CC50 for CCCC[C@H](NC(C)=O)C(=O)N[C@@H](CC(=O)O)C(=O)N[C@H](C(=O)N[C@@H](CC(N)=O)C(=O)N[C@]1(C)CCCCCCC=CCCC[C@@](C)(C(=O)N[C@@H](CCC(N)=O)C(=O)N[C@@H](C)C(=O)N[C@@H](C)C(=O)N[C@@H](C)C(=O)N[C@@H](C)C(N)=O)NC(=O)[C@H](C)NC(=O)[C@H](CC(C)C)NC(=O)[C@H](Cc2ccccc2)NC(=O)[C@H](CC(C)C)NC(=O)[C@H](CC(C)C)NC(=O)[C@H]([C@@H](C)O)NC1=O)C(C)C [SP-27] (Ac-[Nle]DVN[R8]TLLFLA[S5]QAAAA-NH2; staple 5-12) ?
Response: > 100 µM

Query: What does the data say about its CC50? Entry: CCCC[C@H](NC(C)=O)C(=O)N[C@@H](CC(=O)O)C(=O)N[C@H](C(=O)N[C@@H](CC(N)=O)C(=O)N[C@@]1(C)CCCC=CCCC[C@@](C)(C(=O)N[C@@H](CC(C)C)C(=O)N[C@@H](C)C(=O)N[C@H](C(=O)N[C@@H](CCC(N)=O)C(=O)N[C@@H](C)C(=O)N[C@@H](CCC(N)=O)C(=O)NC(C)(C)C(=O)N[C@@H](C)C(N)=O)C(C)C)NC(=O)[C@H](CC(C)C)NC(=O)[C@H](CC(C)C)NC(=O)[C@H]([C@@H](C)O)NC1=O)C(C)C [SP-20] (Ac-[Nle]DVN[S5]TLL[S5]LAVQAQ[Aib]A-NH2; staple 5-9)
Response: > 100 µM
